The measurements presented in this section are drawn from the supplement of paper PMC9170038.

Test system: MS2 coat protein
assay.comment: apparent KD of MS2 coat protein; designed switch direction (-1 OFF switch, 1 ON switch): 1; higher = weaker reporter binding
particulars: Eterna round: R95; input ligand: none
Here the recorded apparent KD of MS2 coat protein is given for each entry.
Output spec: scalar in nM, unitless text.

# input Could you share which apparent KD of MS2 coat protein value was measured for CGACUAAAGUCACAGGAUAUACGCCGUACUACAUGAGGAUCACCCAUGUUCGGGACAGUCGCGGUGUAGAAGGGUGUGGGUCAAC [Errabeed] (puzzle: Same State 2) ?
# output 38.9

# input Could you share which apparent KD of MS2 coat protein value was measured for AGUCCAGCGAAAGCUGGACAAAAGCGUGUACAUGAGGAUCACCCAUGUUCAUGUACAAGCUUUUUGCUCGUCUUAAA [JL mod - D95 - 6] (puzzle: Sensor for hsa-mir-208a) ?
# output 96.2

# input Could you share which apparent KD of MS2 coat protein value was measured for AGUCCAGCGAAAGCUGGACAAAAGCAUGUACAUGAGGAUCACCCAUGUUCAUGUACAAGCUUUUUGCUCGUCUUGAA [JL mod - D95 - 9] (puzzle: Sensor for hsa-mir-208a) ?
# output 611

Further cases:
# input Could you share which apparent KD of MS2 coat protein value was measured for GAGGCACAUGAGGAUCACCCAUGUGGGCGGAACAUAGGAUAUCGCCAACAAUAAGCCCGGUGAGAAGGAUGAUGCC [Lexereat] (puzzle: Same State 1) ?
# output 36.4

# input Could you share which apparent KD of MS2 coat protein value was measured for GGAGAGAGAGCACAGGAUAUGCGAGGAGAGACAUGAGGAUCACCCAUGUAAGAGAGAGAGGAGAGGUAGAAGGGUGAGAGAGAGG [Altered State 2-21 - Jieux - Same State 2] (puzzle: Same State 2) ?
# output 92.3

---

Here the recorded apparent KD of MS2 coat protein is given for each entry.
System: MS2 coat protein
assay.comment: apparent KD of MS2 coat protein; designed switch direction (-1 OFF switch, 1 ON switch): 1; higher = weaker reporter binding
particulars: Eterna round: R95; input ligand: none
Output spec: scalar in nM, unitless text.

Past entries and their recorded results:
# input Could you share which apparent KD of MS2 coat protein value was measured for UUCUUACAUGAGGAUCACCCAUGUGUUGUCGUGGGAGGAUAUCCUGGUUCGGUGGCGUUGGGAGAAGGCCUAUGUU [× ×•×ª×• ×ž×“×™× ×” × ×—×ª-19] (puzzle: Same State 1) ?
# output 376

# input Could you share which apparent KD of MS2 coat protein value was measured for GUCCAACAUGAGGAUCACCCAUGUCGGGCGUGCACAGGAUAUCGCGCCGGGAAAGCCCAGCGAGAAGGGUGAUCGA [Atveinla] (puzzle: Same State 1) ?
# output 50.9

# input Could you share which apparent KD of MS2 coat protein value was measured for GUGGCACAUGAGGAUCACCCAUGUGGGUAGAACAUAGGAUAUCACCAACAAAAUACCCGGUGAGAAGGAUGAUGCC [Esanesdi] (puzzle: Same State 1) ?
# output 161

# input Could you share which apparent KD of MS2 coat protein value was measured for CGUAGGUGGCUGGAGGAUAUUCGAGUGGUAACAUGAGGAUCACCCAUGUGUCGCGCGGUACAUGAGGAGAAGGCUGGCGGCCUGC (puzzle: Same State 2) ?
# output 178

Further cases:
# input Could you share which apparent KD of MS2 coat protein value was measured for AUGGUGCAGGUACAGGAUAUGUUGCUCGUAACAUGAGGAUCACCCAUGUACCUAUGAGAUUAAAUGCAGAAGGGUGCACACCACA [Mat - Same State 2 - Mod of UCT - D88] (puzzle: Same State 2) ?
# output 283

---

Tested on: MS2 coat protein
assay.comment: apparent KD of MS2 coat protein; designed switch direction (-1 OFF switch, 1 ON switch): -1; higher = weaker reporter binding
particulars: input ligand: none
Please use criterion met whenever apparent KD of MS2 coat protein is not below 30 nM, and criterion not met whenever it is.

# input Could you verify whether the entry GCGCCAUCGUGAGAUGGCGUAACUACAUGAGGAUCACCCAUGUAGGAUAUCGAUUGCUUUGCAGUCGAGAAGGGCAUGGUUUGU [JL ENG3 3.86] (Eterna round: R96, puzzle: Exclusion NG 3) shows apparent KD of MS2 coat protein of no less than 30 nM?
# output criterion not met

# input Could you verify whether the entry GCAGUGUGAGUUAGGAUAUGAUGAUUUUUUAUUGGUCAGAAGGAACUUGAGGAUCACCCAAGUUAGGAAUUGGU [JR_BMEx4_Sub075] (Eterna round: R97, puzzle: Brourd's mod of Exclusion 4) shows apparent KD of MS2 coat protein of no less than 30 nM?
# output criterion met

# input Could you verify whether the entry AUAUAGAUAGUCAGGAUAUGCUAGUGAUAACAGUAGCAGAAGGGACAUGAGGAUCACCCAUGUGGAUAGCGCAC [Brourd's EX4 #5] (Eterna round: R97, puzzle: Brourd's mod of Exclusion 4) shows apparent KD of MS2 coat protein of no less than 30 nM?
# output criterion met

Further cases:
# input Could you verify whether the entry ACAACCGGAGGAUAUACGUAUUCAUCACUCAACGCGGAACGACAUGAGGAUCACCCAUGUAGAAGGCCGAGAGU [EX2 B.24] (Eterna round: R97, puzzle: Exclusion 2) shows apparent KD of MS2 coat protein of no less than 30 nM?
# output criterion not met

---

Test system: MS2 coat protein
assay.comment: apparent KD of MS2 coat protein; designed switch direction (-1 OFF switch, 1 ON switch): -1; higher = weaker reporter binding
particulars: Eterna round: R95; input ligand: none
quantity.kind: apparent KD of MS2 coat protein (nM)
Output spec: scalar in nM, unitless text.

Past entries and their recorded results:
# input Could you share which apparent KD of MS2 coat protein value was measured for CUGAGGUAGCGGUCCUAUGACAUGAGGAUCACCCAUGUACCUUGCUACGAGCUUUUUGCUCGUCUUAUAAUUCUCGG [JL Atriat mod 3] (puzzle: Sensor v3, turn-off variant 1) ?
# output 526

# input Could you share which apparent KD of MS2 coat protein value was measured for GGCAAUAUGUAGGAUAUCGUAUUGGAAACAAUACGAGAAGGGCAAACAUGAGGAUCACCCAUGUUCCUUAAGCC [Mat - Exclusion 6 - Eli Mod - D68] (puzzle: Exclusion 6) ?
# output 16.6

# ---- query sequence ----
# input Could you share which apparent KD of MS2 coat protein value was measured for UUGCUACCUUGGUACUCUACAAGCUUUUUGCUCGUUUUAACAUGAGGAUCACCCAUGUCUAGUGGAUCUGAUCGGGU [JL ViennaUCT Isreen mod 3] (puzzle: Sensor v3, turn-off variant 2) ?
# output 77.5

---

Tested on: MS2 coat protein
assay.comment: apparent KD of MS2 coat protein; designed switch direction (-1 OFF switch, 1 ON switch): 1; higher = weaker reporter binding
particulars: Eterna round: R95; input ligand: FMN 200 uM
Please use fulfilled whenever apparent KD of MS2 coat protein is not below 20 nM, and not fulfilled whenever it is.

# input Could you verify whether the entry AUAAAACAUGAGGAUCACCCAUGUCAACAAAGUCGAGGAUAUGGGCAAAGAAAAGAAUAACCAGAAGGCGAAUAAU [salish99_ss1_r3_055] (puzzle: Same State 1) shows apparent KD of MS2 coat protein of no less than 20 nM?
# output fulfilled

# input Could you verify whether the entry AAACUACGUGCACAGGAUAUACGUUCCUAUACAUGAGGAUCACCCAUGUACCAACCGAAAAGGAAGUAGAAGGGUGUCCGUAAAC [Esardixequ] (puzzle: Same State 2) shows apparent KD of MS2 coat protein of no less than 20 nM?
# output not fulfilled

# input Could you verify whether the entry UCUUGGUUUUUGCUCGUUUUUUGUGUUGAACAUGAGGAUCACCCAUGUAUUGUACAAUCCAAUUUAAUAAUGGUCCG [JMF 48] (puzzle: Sensor for hsa-mir-208a) shows apparent KD of MS2 coat protein of no less than 20 nM?
# output fulfilled

# input Could you verify whether the entry AAAGGACAUGAGGAUCACCCAUGUAGAAAAUACACAGGAUAUCGUCAUAUCGAAUUAUAAUGAGAAGGGUGCAAAA [Vebeinlala] (puzzle: Same State 1) shows apparent KD of MS2 coat protein of no less than 20 nM?
# output fulfilled

Further cases:
# input Could you verify whether the entry ACGCGGGUAUCACAGGAUAUACUCAUAACUACAUGAGGAUCACCCAUGUGGCGGAAUUCCGGUGCGUAGAAGGGUGAUGGACCGC [Artece] (puzzle: Same State 2) shows apparent KD of MS2 coat protein of no less than 20 nM?
# output not fulfilled

---

Here the recorded apparent KD of MS2 coat protein is given for each entry.
System: MS2 coat protein
assay.comment: apparent KD of MS2 coat protein; designed switch direction (-1 OFF switch, 1 ON switch): -1; higher = weaker reporter binding
particulars: input ligand: none
Output spec: scalar in nM, unitless text.

# input Form field: apparent KD of MS2 coat protein recorded for GCAGUUCGAGUUAGGAUAUGAUGUUAAUUCGGAUAUCAGAAGGAACUUGAGGAUCACCCAAGUAUAGAUGUUGC [JR_BMEx4_Sub060] (Eterna round: R97, puzzle: Brourd's mod of Exclusion 4) with MS2 coat protein (enter value)
# output 18.6

# input Form field: apparent KD of MS2 coat protein recorded for ACAUGAGGAUCACCCAUGUCAGGUUGGUUUUCUCCGGCUGUUGAGGAUAUAGUCCGGUAUCCGCGCUAGAAGGUGAGGGUUGGC [Aenatbe mod 13] (Eterna round: R96, puzzle: Exclusion NG 3) with MS2 coat protein (enter value)
# output 78.7

# ---- query sequence ----
# input Form field: apparent KD of MS2 coat protein recorded for GUCAGCUCGUGAGGAUAUAUAUAUACAUGAGGAUCACCCAUGUUAGAUCAGCUUCGGCAGUAUAUAUAGAAGGCACGAGCUGAC [ENG2/15-A1] (Eterna round: R96, puzzle: Exclusion NG 2) with MS2 coat protein (enter value)
# output 87.6
